These data points were gathered from ChEMBL document CHEMBL4689842.

Tested on: U2OS
Protocol Description: Incucyte cell viability with U2OS; further: filed as whole numbers so only -1 and 0 and 1 occur
Type: toxicity, cell-based
Assay Setup: human, 12 h, 10 µM, compound concentration 10 uM, replicate number 2, timepoint 12 hours
Attribute Measured: Growth Rate

INSERT INTO results (compound, attribute_measured, measured_result) VALUES
  ('Cc1cc(-n2nc(Cc3cc(F)cc(C(F)(F)F)c3)nc2C)ccc1C(N)=O', 'Growth Rate', 1),
  ('CCOC(=O)CCNc1cc(N2CCc3ccccc3CC2)nc(-c2cccnc2)n1', 'Growth Rate', 0),
  ('COc1ccc(-c2ccc3cc(C(=O)O)ccc3c2)cc1C12CC3CC(CC(C3)C1)C2', 'Growth Rate', 0),
  ('Cc1cccc(CN2CCN(C(c3ccccc3)c3ccc(Cl)cc3)CC2)c1.Cl.Cl (centres undefined)', 'Growth Rate', 0),
  ('CNC(=O)Nc1ccc2c(c1)[C@@]1(CC2)OC(=O)N(CC(=O)N(Cc2ccc(F)cc2)[C@@H](C)C(F)(F)F)C1=O', 'Growth Rate', 1),
  ('CN(C)C(=O)/C(C#N)=C/c1ccc(-c2nc3cnc4c(ccn4C)c3n2C2CCCCC2)o1', 'Growth Rate', 1),
  ('COc1cc(-c2cn([C@H]3CCc4ccccc4N(CC(F)(F)F)C3=O)nn2)ccc1-n1ccc(C)n1', 'Growth Rate', 1),
  ('O=C(O)C1CN(Cc2ccc(-c3nc4cc(Cc5ccccc5F)ccc4s3)c(F)c2)C1', 'Growth Rate', 0),
  ('Cc1cc([C@@H](C)Nc2ccccc2C(=O)O)c2nc(N3CCOCC3)cc(=O)n2c1', 'Growth Rate', 1);

* * *

System: HEK-293T
Protocol Description: Multiplex assay against HEK293T;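 further: share of the cells with healthy nuclei that show this phenotype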
Type: toxicity, cell-based
Assay Setup: human, 24 h, 10 µM, compound concentration 10 uM, replicate 2
Listed next: entries and their corresponding Population Tubulin-Different-Phenotype (%).
Attribute Measured: Population Tubulin-Different-Phenotype (%)

INSERT INTO assay_data (molecule, experimental_system, units_label, measured_result) VALUES
  ('C=CC(=O)Nc1ccc2[nH]c(=O)n(C3CCN(Cc4ccc(-c5nc6cc[nH]c(=O)c6cc5-c5ccccc5)cc4)CC3)c2c1', 'HEK-293T', '%', 90),
  ('CC1=C(C(=O)Nc2cc3cn[nH]c3cc2F)C(c2ccc(C(F)(F)F)cc2)CC(=O)N1 (stereo not drawn)', 'HEK-293T', '%', 47),
  ('O=c1[nH]c2ccccc2n1C1CCN(Cc2ccc(-c3[nH]c4cc5ncnc5cc4nc3-c3ccccc3)cc2)CC1', 'HEK-293T', '%', 72),
  ('Cl.O=C(O)c1cc(-c2ccc(C3CCNCC3)cc2)c2ccc(-c3ccc(C(F)(F)F)cc3)cc2c1', 'HEK-293T', '%', 76),
  ('Cc1c[nH]c2nccc(Oc3c(F)cc(Nc4cc(Cl)nc(N)n4)cc3F)c12', 'HEK-293T', '%', 5),
  ('CC(C)Oc1ccccc1C(=O)Nc1ccccc1C(=O)Nc1cccc(S(=O)(=O)C(F)(F)F)c1', 'HEK-293T', '%', 81),
  ('CNC(=O)Nc1ccc(-c2nc(N3CC4CCC(C3)O4)c3cnn(C4CCC5(CC4)OCCO5)c3n2)cc1', 'HEK-293T', '%', 96),
  ('CC(C)NC(=O)N1CC[C@H](NC2=Nc3cc(F)ccc3N(CC(F)F)c3ccc(Cl)cc32)C1', 'HEK-293T', '%', 61);

* * *

System: Fibroblast
Protocol Description: Multiplex assay against human fibroblast
Format: toxicity, cell-based
Assay Setup: 48 h, 1 µM, compound concentration 1 uM, replicate 2
Attribute Measured: Population Normal (%)

INSERT INTO measurements (molecule, measured_result) VALUES
  ('Cc1ccccc1C(c1ccccc1C)N1C2CCC1CC(O)(c1ccccc1)C2 (stereo not drawn)', '100%'),
  ('CCc1ccc(OCc2ccccc2C(=O)Nc2ccc3nc(C)cc(N)c3c2)cc1.Cl', '83%'),
  ('CN1CCN(Cc2ccc(Nc3ncc(Cl)c(Nc4ccccc4S(=O)(=O)N(C)C)n3)cc2)CC1', '95%'),
  ('Cl.O=C(O)c1cc(-c2ccc(C3CCNCC3)cc2)c2ccc(-c3ccc(C(F)(F)F)cc3)cc2c1', '91%'),
  ('O=c1cc(N2CCOCC2)oc2c(-c3cccc4c3sc3ccccc34)cccc12', '93%'),
  ('CC(C)Oc1ccccc1C(=O)Nc1ccccc1C(=O)Nc1cccc(S(=O)(=O)C(F)(F)F)c1', '92%'),
  ('COC(=O)C1=C(C)NC(C)=C(C(=O)OCCCN2CCC(c3ccccc3)(c3ccccc3)CC2)[C@H]1c1cccc([N+](=O)[O-])c1', '78%'),
  ('O=C(c1cc2c(cc1F)OC(c1ccc(F)cc1)(c1ccc(Cl)cc1Cl)O2)N1CCOCC1 (stereo not drawn)', '87%');

* * *

System: U2OS
Protocol Description: Multiplex assay against U2OS
Type: toxicity, cell-based
Assay Setup: human, 48 h, 10 µM, compound concentration 10 uM, replicate 2
Listed next: entries and their corresponding Population Pyknosed Nuclei (%).
Attribute Measured: Population Pyknosed Nuclei (%)

INSERT INTO measurements (molecule, attribute_measured, measured_result) VALUES
  ('COc1ccccc1CN[C@H]1C2CCN(CC2)[C@H]1C(c1ccccc1)c1ccccc1', 'Population Pyknosed Nuclei (%)', 10),
  ('O=c1cc(N2CCOCC2)oc2c(-c3cccc4c3sc3ccccc34)cccc12', 'Population Pyknosed Nuclei (%)', 52),
  ('COc1ccc(-c2ccc3ncc4c(c3c2)n(-c2ccc(N3CCNCC3)c(C(F)(F)F)c2)c(=O)n4C)cn1.O=C(O)/C=C\C(=O)O', 'Population Pyknosed Nuclei (%)', 1),
  ('COC(=O)C1=C(C)NC(C)=C(C(=O)OCCCN2CCC(c3ccccc3)(c3ccccc3)CC2)[C@H]1c1cccc([N+](=O)[O-])c1', 'Population Pyknosed Nuclei (%)', 53),
  ('CN1CCN(Cc2ccc(Nc3ncc(Cl)c(Nc4ccccc4S(=O)(=O)N(C)C)n3)cc2)CC1', 'Population Pyknosed Nuclei (%)', 26),
  ('CCOC(=O)Nc1cc(-c2ccc(C)c(NS(C)(=O)=O)c2)nn2c(C)nnc12', 'Population Pyknosed Nuclei (%)', 6),
  ('Cc1ccc2c(c1)c1c(n2CCc2ccc(C)nc2)CCN(C)C1 [LATREPIRDINE]', 'Population Pyknosed Nuclei (%)', 42),
  ('Cc1c[nH]c2nccc(Oc3c(F)cc(Nc4cc(Cl)nc(N)n4)cc3F)c12', 'Population Pyknosed Nuclei (%)', 23);

* * *

Tested on: Fibroblast
Protocol Description: Multiplex assay against human fibroblast
Type: toxicity, cell-based
Assay Setup: 24 h, 1 µM, compound concentration 1 uM, replicate 1
Attribute Measured: Population Apoptotic (%)

INSERT INTO results (compound, measured_result) VALUES
  ('Cc1cccc(CN2CCN(C(c3ccccc3)c3ccc(Cl)cc3)CC2)c1.Cl.Cl (stereo not given)', 75),
  ('Cc1ccc(C)c(Oc2ccncc2C(=O)N2CCN(C3CC3)c3ccccc32)c1', 52),
  ('C=CC(=O)Nc1cccc(Sc2nc(Nc3ccc(N4CCN(C)CC4)cc3)ncc2Cl)c1', 74),
  ('CCOC(=O)Nc1cc(-c2ccc(C)c(NS(C)(=O)=O)c2)nn2c(C)nnc12', 61),
  ('Cc1nc(N2CC[C@H](O)C2)ncc1-c1cc(C(F)(F)F)cc2[nH]ncc12', 48);

* * *

System: U2OS
Protocol Description: Multiplex assay against U2OS
Assay type: toxicity, cell-based
Assay Setup: human, 12 h, 10 µM, compound concentration 10 uM, replicate 2
Attribute Measured: Population Tubulin-Different-Phenotype (%)

INSERT INTO assay_data (compound, measured_result) VALUES
  ('Cc1cccc(CN2CCN(C(c3ccccc3)c3ccc(Cl)cc3)CC2)c1.Cl.Cl (configuration not stated)', '47%'),
  ('CNCc1ccccc1-c1csc([C@@H](C)Nc2nc(C)nc3cc(OC)c(OC)cc23)c1', '97%'),
  ('COc1ccc(-c2ccc3ncc4c(c3c2)n(-c2ccc(N3CCNCC3)c(C(F)(F)F)c2)c(=O)n4C)cn1.O=C(O)/C=C\C(=O)O', '24%'),
  ('O=c1cc(N2CCOCC2)oc2c(-c3cccc4c3sc3ccccc34)cccc12', '95%'),
  ('COc1cc2ncn(-c3cc(OCc4ccccc4C(F)(F)F)c(C(N)=O)s3)c2cc1OC [GW843682X]', '98%'),
  ('CC(C)c1noc(N2CCC(COc3ccc(-c4ccc(S(C)(=O)=O)cc4)nc3)CC2)n1', '15%'),
  ('CC(C)CC(=O)Nc1[nH]nc2c1CN(C(=O)C1CCN(C)CC1)C2(C)C', '26%'),
  ('CC(C)(C)NC[C@H](O)COc1nsnc1N1CCOCC1', '4%'),
  ('C[C@]12CC[C@@H]3c4ccc(O)cc4CC[C@H]3[C@@H]1CC[C@@H]2O', '25%'),
  ('C=CC(=O)Nc1cccc(Sc2nc(Nc3ccc(N4CCN(C)CC4)cc3)ncc2Cl)c1', '33%'),
  ('CCc1nn(CCCN2CCN(c3cccc(Cl)c3)CC2)c(=O)n1CCOc1ccccc1.Cl [NEFAZODONE HYDROCHLORIDE]', '97%'),
  ('COc1ccccc1CN[C@H]1C2CCN(CC2)[C@H]1C(c1ccccc1)c1ccccc1', '26%'),
  ('Cl.O=C(O)c1cc(-c2ccc(C3CCNCC3)cc2)c2ccc(-c3ccc(C(F)(F)F)cc3)cc2c1', '23%'),
  ('CN1CCN(Cc2ccc(Nc3ncc(Cl)c(Nc4ccccc4S(=O)(=O)N(C)C)n3)cc2)CC1', '42%'),
  ('C=CC(=O)Nc1ccc2[nH]c(=O)n(C3CCN(Cc4ccc(-c5nc6cc[nH]c(=O)c6cc5-c5ccccc5)cc4)CC3)c2c1', '32%'),
  ('CC(C)OC(=O)N1CCC(Oc2ncnc3c2cnn3-c2ccc(S(C)(=O)=O)cc2F)CC1', '28%'),
  ('COc1cc(Nc2nccc(-c3cnn4nc(OC)ccc34)n2)cc(C(F)(F)F)c1', '15%');
